# SYSTEM_TESTED: tetrodotoxin-resistant sodium channels (Rattus norvegicus)
# CONDITION_CONTEXT: neuron cultures from the posterior root ganglia of adult rats; read-out: half-maximal inhibition of tetrodotoxin-resistant sodium channels
ASSAY_METRIC: pIC50
Scale note: pIC50 = -log10(concentration in M).

For reference, reported pIC50 for Nc1c(Br)cc(Br)cc1CN[C@H]1CC[C@H](O)CC1 [ambroxol] stands at 4.46
